- System: CEM cells HIV-1 protection, formazan growth assay
- test summary: NCI AIDS Antiviral Assay
- experimental parameters: measured here: growth of uninfected CEM cells
- Protocol: The ability of compounds to protect human CEM cells from HIV-1 infection is measured as a screen for new compounds capable of inhibiting the HIV virus. Five concentrations of drug were tested on uninfected and infected cells and cell growth was measured using a soluble formazan assay. […] Compounds that provided at least 50% protection were retested. Compounds that provided at least 50% protection on retest were listed as moderately active. […]
// reported IC50 per item

- compound: "Cc1ccc(C)c(NC(=O)C(=O)C2C(=O)C3=C(CC2(C)C)Nc2ccccc2S3)c1 (stereo not drawn)"
  IC50: "> 85.1 µM"
- compound: "CN(c1ccc(Cl)cc1)S(=O)(=O)c1ccccc1[N+](=O)[O-]"
  IC50: "24.5 µM"

Test system CEM cells HIV-1 protection, formazan growth assay; read-out IC50; what value for COc1ccc(-c2c(C(C)=O)c(-c3ccccc3)n(C3OC(CO)C(O)C(O)C3O)c(=S)c2C#N)cc1 (stereo not drawn) ? > 200 µM

Recorded IC50 for "O=[N+]([O-])c1cccc[c]1[Sb](=[O])([OH])[OH]" with CEM cells HIV-1 protection, formazan growth assay, please? 7.41 µM

Lab note: need IC50 with CEM cells HIV-1 protection, formazan growth assay for entry CC(=O)OC1C(C)OC(OC2[C@@H]3C=CO[C@@H](OC4OC(CO)C(O)C(O)C4O)[C@@H]3[C@@]3(CO)O[C@@H]23)C(OC(=O)/C=C/c2ccccc2)C1OC(=O)/C=C/c1ccccc1 (stereo partly drawn) , please look it up. > 21.9 µM

Find the measured IC50: item CC(C)CC(=O)CC(C)[C@]1(CCCOCc2ccccc2)C(=O)N2CCC3(C[C@@]24CCC[C@H]41)OCCO3 (stereo partly drawn) , target or system CEM cells HIV-1 protection, formazan growth assay. 35.5 µM

Request - read-out IC50 | tested on CEM cells HIV-1 protection, formazan growth assay | compound "Cc1ccc(S(=O)(=O)Nn2c3c(cc(C#N)c2=O)CCCC3)cc1" > 200 µM

Record lookup: for CEM cells HIV-1 protection, formazan growth assay, what IC50 belongs to CCCCN(C)CC(C(C)=O)C(c1ccccc1)c1c(O)c2ccccc2oc1=O (stereo not drawn) ? 60.3 µM
